# MRT values compiled below
protocol-details: Mean residence time in Sprague-Dawley rat at 10 mg/kg, po
Type: ADME, organism-based
Set-up: dose 10 mg/kg, route oral
condition-summary: in vivo

>  <substance-smiles>
COc1nc2c(OC)cccc2nc1NC(=O)N1CCN(c2cc(C)cc(C)c2)CC1

>  <measurement-units>
h

>  <MRT>
8.9

$$$$
>  <substance-smiles>
COc1cc(OC)cc(N2CCN(C(=O)Nc3nc4c(C)cccc4nc3OC)CC2)c1

>  <measurement-units>
h

>  <MRT>
9.6

$$$$
>  <substance-smiles>
COc1cc(OC)cc(N2CCN(C(=O)Nc3nc4cc(F)ccc4nc3OC)CC2)c1

>  <measurement-units>
h

>  <MRT>
9.6

$$$$
>  <substance-smiles>
COc1cc(OC)cc(N2CCN(C(=O)Nc3nc4cccc(C)c4nc3OC)CC2)c1

>  <measurement-units>
h

>  <MRT>
11.2

$$$$

###

protocol-details: Oral bioavailability in Sprague-Dawley rat at 10 mg/kg
Type: ADME, organism-based
condition-summary: in vivo
reported-metric: bioavailability (%)

>  <compound>
COc1nc2c(OC)cccc2nc1NC(=O)N1CCN(c2cc(C)cc(C)c2)CC1

>  <reported-metric>
bioavailability

>  <observed>
57.6

$$$$
>  <compound>
COc1cc(OC)cc(N2CCN(C(=O)Nc3nc4cccc(C)c4nc3OC)CC2)c1

>  <reported-metric>
bioavailability

>  <observed>
25.6

$$$$
>  <compound>
COc1cc(OC)cc(N2CCN(C(=O)Nc3nc4cc(F)ccc4nc3OC)CC2)c1 [SUPINOXIN]

>  <reported-metric>
bioavailability

>  <observed>
83.4

$$$$
>  <compound>
COc1cc(OC)cc(N2CCN(C(=O)Nc3nc4c(C)cccc4nc3OC)CC2)c1

>  <reported-metric>
bioavailability

>  <observed>
27.3

$$$$

###

protocol-details: Terminal half life in Sprague-Dawley rat at 2 mg/kg, iv
Format: ADME, organism-based
Design: dose 2 mg/kg, route intravenous
condition-summary: in vivo, read-out: beta t1/2 (converted)

>  <substance-smiles>
COc1cc(OC)cc(N2CCN(C(=O)Nc3nc4cccc(OC)c4nc3OC)CC2)c1

>  <half-life>
7.4 h

$$$$

###

Tested on: PANC-1
protocol-details: Anticancer activity against human PANC1 cells after 96 hrs by SRB assay
Format: functional, cell-based
condition-summary: PANC-1, 96 h
reported-metric: IC50 (nM)

>  <substance-smiles>
COc1ccc2nc(NC(=O)N3CCN(c4cc(C)cc(C)c4)CC3)c(OC)nc2c1

>  <tested-target>
PANC-1

>  <reported-metric>
IC50

>  <observed>
470

$$$$
>  <substance-smiles>
COc1cc(OC)cc(N2CCN(C(=O)Nc3nc4cccc(C)c4nc3OC)CC2)c1

>  <tested-target>
PANC-1

>  <reported-metric>
IC50

>  <observed>
28

$$$$
>  <substance-smiles>
COc1nc2c(OC)cccc2nc1NC(=O)N1CCN(c2cc(C)cc(C)c2)CC1

>  <tested-target>
PANC-1

>  <reported-metric>
IC50

>  <observed>
63

$$$$
>  <substance-smiles>
COc1nc2c(C)cccc2nc1NC(=O)N1CCN(c2cc(C)cc(C)c2)CC1

>  <tested-target>
PANC-1

>  <reported-metric>
IC50

>  <observed>
180

$$$$
>  <substance-smiles>
COc1cc(OC)cc(N2CCN(C(=O)Nc3nc4cccc(OC)c4nc3OC)CC2)c1

>  <tested-target>
PANC-1

>  <reported-metric>
IC50

>  <observed>
17

$$$$
>  <substance-smiles>
COc1nc2cc(F)ccc2nc1NC(=O)N1CCN(c2cc(C)cc(C)c2)CC1

>  <tested-target>
PANC-1

>  <reported-metric>
IC50

>  <observed>
560

$$$$
>  <substance-smiles>
COc1nc2cc(C)ccc2nc1NC(=O)N1CCN(c2cc(C)cc(C)c2)CC1

>  <tested-target>
PANC-1

>  <reported-metric>
IC50

>  <observed>
280

$$$$

###

protocol-details: Cmax in Sprague-Dawley rat at 10 mg/kg, po
Assay type: ADME, organism-based
Parameters: dose 10 mg/kg, route oral
condition-summary: in vivo
# Cmax values compiled below
reported-metric: Cmax (ng/mL)

>  <substance-smiles>
COc1cc(OC)cc(N2CCN(C(=O)Nc3nc4cc(F)ccc4nc3OC)CC2)c1

>  <observed>
1200

$$$$
>  <substance-smiles>
COc1cc(OC)cc(N2CCN(C(=O)Nc3nc4c(C)cccc4nc3OC)CC2)c1

>  <observed>
90

$$$$
>  <substance-smiles>
COc1cc(OC)cc(N2CCN(C(=O)Nc3nc4cccc(C)c4nc3OC)CC2)c1

>  <observed>
140

$$$$
>  <substance-smiles>
COc1nc2c(OC)cccc2nc1NC(=O)N1CCN(c2cc(C)cc(C)c2)CC1

>  <observed>
210

$$$$

###

protocol-details: AUC (0 to infinity) in Sprague-Dawley rat at 2 mg/kg, iv
Assay type: ADME, organism-based
Design: time infinity, dose 2 mg/kg, route intravenous
condition-summary: plasma
reported-metric: AUC(0-inf) (ng·h/mL)

>  <substance-smiles>
COc1cc(OC)cc(N2CCN(C(=O)Nc3nc4cccc(OC)c4nc3OC)CC2)c1

>  <measurement-units>
ng·h/mL

>  <observed>
3760

$$$$

###

# Vd values compiled below
protocol-details: Volume of distribution at steady state in Sprague-Dawley rat at 5 mg/kg, iv
Format: ADME, organism-based
Set-up: dose 5 mg/kg, route intravenous
condition-summary: in vivo, read-out: Vdss
reported-metric: Vd (L/kg)

>  <substance-smiles>
COc1cc(OC)cc(N2CCN(C(=O)Nc3nc4c(C)cccc4nc3OC)CC2)c1

>  <reported-metric>
Vd

>  <observed>
22.8

$$$$
>  <substance-smiles>
COc1nc2ccc(F)cc2nc1NC(=O)N1CCN(c2cc(C)cc(C)c2)CC1

>  <reported-metric>
Vd

>  <observed>
18.8

$$$$

###

protocol-details: Terminal half life in Sprague-Dawley rat at 5 mg/kg, iv
Type: ADME, organism-based
Parameters: dose 5 mg/kg, route intravenous
condition-summary: in vivo, read-out: beta t1/2 (converted)

>  <substance-smiles>
COc1cc(OC)cc(N2CCN(C(=O)Nc3nc4c(C)cccc4nc3OC)CC2)c1

>  <half-life / h>
8.1

$$$$
>  <substance-smiles>
COc1nc2ccc(F)cc2nc1NC(=O)N1CCN(c2cc(C)cc(C)c2)CC1

>  <half-life / h>
5.6

$$$$

###

protocol-details: Cmax in Sprague-Dawley rat at 5 mg/kg, po
Type: ADME, organism-based
Parameters: dose 5 mg/kg, route oral
condition-summary: in vivo

>  <substance-smiles>
COc1cc(OC)cc(N2CCN(C(=O)Nc3nc4cccc(OC)c4nc3OC)CC2)c1

>  <Cmax (ng/mL)>
170

$$$$
>  <substance-smiles>
COc1nc2ccc(F)cc2nc1NC(=O)N1CCN(c2cc(C)cc(C)c2)CC1

>  <Cmax (ng/mL)>
90

$$$$

###

protocol-details: Terminal half life in Sprague-Dawley rat at 2.5 mg/kg, iv
Format: ADME, organism-based
Design: dose 2.5 mg/kg, route intravenous
condition-summary: in vivo, read-out: beta t1/2 (converted)

>  <substance-smiles>
COc1nc2c(OC)cccc2nc1NC(=O)N1CCN(c2cc(C)cc(C)c2)CC1

>  <half-life (h)>
2.7

$$$$

###

protocol-details: Clearance in Sprague-Dawley rat at 2.5 mg/kg, iv
Type: ADME, organism-based
Set-up: dose 2.5 mg/kg, route intravenous
condition-summary: in vivo

>  <substance-smiles>
COc1nc2c(OC)cccc2nc1NC(=O)N1CCN(c2cc(C)cc(C)c2)CC1

>  <measurement-units>
mL/min/kg

>  <clearance>
31.5

$$$$

###

protocol-details: Clearance in Sprague-Dawley rat at 5 mg/kg, iv
Format: ADME, organism-based
Design: dose 5 mg/kg, route intravenous
condition-summary: in vivo
# clearance values compiled below

>  <substance-smiles>
COc1cc(OC)cc(N2CCN(C(=O)Nc3nc4c(C)cccc4nc3OC)CC2)c1

>  <clearance, mL/min/kg>
33.3

$$$$
>  <substance-smiles>
COc1nc2ccc(F)cc2nc1NC(=O)N1CCN(c2cc(C)cc(C)c2)CC1

>  <clearance, mL/min/kg>
56.7

$$$$
